# experimental-target: T1, CD55 (UniProt P08174 35-353, limits assumed)
# T1 construct: whole, on cells; also called CD55 on Rituximab resistant Raji cells (RRCL)
# T1 sequence (looked up): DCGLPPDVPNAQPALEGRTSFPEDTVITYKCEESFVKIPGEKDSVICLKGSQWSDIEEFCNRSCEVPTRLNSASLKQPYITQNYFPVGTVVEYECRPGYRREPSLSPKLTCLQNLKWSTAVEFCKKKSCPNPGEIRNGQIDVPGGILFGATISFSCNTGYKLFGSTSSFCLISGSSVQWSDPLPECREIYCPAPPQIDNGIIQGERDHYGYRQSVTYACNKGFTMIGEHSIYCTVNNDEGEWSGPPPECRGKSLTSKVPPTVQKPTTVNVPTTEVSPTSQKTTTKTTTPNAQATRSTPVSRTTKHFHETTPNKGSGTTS
# assay-explanation: binding at 5 µg/ml against the unmutated antibody (SEQ ID NO: 14 + 15); format not stated

[
  {
    "binder": "anti-CD55 antibody with CD55VH (SEQ ID NO: 14) N52S and VL (SEQ ID NO: 15) (antibody, V domains shown, also called Test 2) VH: QVKLQESGGGLVQPGGSLKLSCAASGFTFSGYGMSWIRQTPDKRLEWVATISSGGSYTYYSDSVKGRFTISRDNVKNTLYLQMSSLKSEDTAMYYCARRNGTLYYYLMDYWGRGTLVTVSS VL: QSVLTQPPSASGSPGQSVTISCTGTSSDVGGYNYVSWYQQHPGKAPKFMIYDVSKRPSGVSNRFSGSKSGNTASLTISGVQAEDEADYYCSSYTSASTVIFGGGTKLTVL",
    "Function remaining percentage (5 µg/ml), %": 95
  },
  {
    "binder": "anti-CD55 antibody with CD55VH (SEQ ID NO: 14) N52L and VL (SEQ ID NO: 15) (antibody, V domains shown, also called Test 10) VH: QVKLQESGGGLVQPGGSLKLSCAASGFTFSGYGMSWIRQTPDKRLEWVATILSGGSYTYYSDSVKGRFTISRDNVKNTLYLQMSSLKSEDTAMYYCARRNGTLYYYLMDYWGRGTLVTVSS VL: QSVLTQPPSASGSPGQSVTISCTGTSSDVGGYNYVSWYQQHPGKAPKFMIYDVSKRPSGVSNRFSGSKSGNTASLTISGVQAEDEADYYCSSYTSASTVIFGGGTKLTVL",
    "Function remaining percentage (5 µg/ml), %": 15
  },
  {
    "binder": "anti-CD55 antibody with CD55VH (SEQ ID NO: 14) N100L and VL (SEQ ID NO: 15) (antibody, V domains shown, also called Test 17) VH: QVKLQESGGGLVQPGGSLKLSCAASGFTFSGYGMSWIRQTPDKRLEWVATINSGGSYTYYSDSVKGRFTISRDNVKNTLYLQMSSLKSEDTAMYYCARRLGTLYYYLMDYWGRGTLVTVSS VL: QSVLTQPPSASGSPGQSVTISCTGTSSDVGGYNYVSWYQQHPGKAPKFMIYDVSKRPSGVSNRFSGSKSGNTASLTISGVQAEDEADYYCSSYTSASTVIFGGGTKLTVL",
    "Function remaining percentage (5 µg/ml), %": 92
  }
]

These entries and their values trace back to patent US20220169728A1.
